test: qHTS for Stage-Specific Inhibitors of Vaccinia Orthopoxvirus: mCherry Reporter Primary qHTS; conditions: Vaccinia virus mCherry reporter infection, fluorescence; series mostly up to 36.5 µM; note: nearly all actives have a fitted effect of over 35% in size
Out of some 310,000 compounds screened, about 1,900 (0.61%) were called active. About 8% were inconclusive and are not listed. Calls come from the whole dose curve; tested in A549 cells. Many of the other results were omitted from the sample, so actives are more common in it than they were.
Pick one and only one: yes (1) (active), no (0) (inactive)

Here's what some known entries look like.
Cc1cccc(CNC(=O)c2cnn(-c3nccc(-c4ccccc4F)n3)c2C2CC2)n1 : no (0)
N#Cc1cccc(NC(=O)c2cc(C3CCCCN3C(=O)CCc3ccccc3)on2)c1 (stereo unspecified) : no (0)
Cc1cc(Br)cn2c(Cc3ccsc3)c(-c3ccc(C#N)cc3)nc12 : no (0)
CCN1CCCC1CNC(=O)c1ccc2c(c1)NC(=O)/C(=C\c1ccccc1F)S2 (stereo unspecified) : no (0)

What call does the record list for `COc1cccc(NC(=O)Nc2ccc(F)cc2)c1` ?
no (0)

What was the test verdict on CCOc1ccc(C(=O)NC(C(=O)NCc2ccccn2)C(C)C)cc1 (stereo unspecified) ?
no (0)

What did this assay record as the result for CC(C)C1CCN(C(=O)C2CCC(=O)N(C3CCCCCC3)C2)CC1 (stereo unspecified) ?
no (0)

Short answer needed: outcome of this test for CCC(c1nnnn1-c1ccc2c(c1)OCCO2)N1CCN(c2ccc(C(F)(F)F)cn2)CC1 (stereo unspecified) ?
no (0)

Hi team, can someone confirm the assay call for `COc1ccc2sc(-c3ccc(S(C)(=O)=O)cc3)c(C#Cc3cncn3C)c2c1` ?
no (0)

For this compound, state the assay outcome: CC1=C(C(=O)N2CCOCC2)CC(CC(=O)NCC2CCCCC2)C(=O)N1Cc1ccc(F)cc1 (stereo unspecified)
no (0)

Look up the recorded call for `CN(Cc1cccc2ncccc12)C(=O)c1cnn(-c2nccc(-c3ccccc3F)n2)c1C1CC1` in this test.
yes (1)

Recorded test call requested for `CN(C)c1ccc(/C=C/C(=O)c2ccc(O)cc2)cc1[N+](=O)[O-]`
yes (1)

# outcome recorded in this test, key = `O=C(COc1cc(Cl)c(Cl)cc1Cl)NCCc1ccccn1`
no (0)

Lab log entry: O=C(Nc1ccc2c(c1)OCCO2)C(C1CC1)N1CCC(Cc2ccccc2)CC1 (stereo unspecified) — outcome as called in the assay?
no (0)

Outcome logged for CCc1oc(-c2ccc(OC)cc2)c(C(=O)OCCCCCO)c1C(C)OCCO (stereo unspecified) in this assay:
no (0)

Name the outcome recorded for `O=C(/C=C/c1ccc(Cl)c([N+](=O)[O-])c1)c1ccc(O)cc1` in the assay.
no (0)

###

experiment: qHTS for Stage-Specific Inhibitors of Vaccinia Orthopoxvirus: mCherry Reporter Primary qHTS; settings: Vaccinia virus mCherry reporter infection, fluorescence; series mostly up to 36.5 µM; note: nearly all actives have a fitted effect of over 35% in size; note: potency is the fitted concentration of half-maximal effect
In all, about 310,000 compounds went through this assay and about 1,900 (0.61%) were called active. Not shown: some 8% with an inconclusive outcome. The list comes from a sample in which actives are over-represented; it also holds close analogues and randomly drawn compounds.
Readout Type: Potency

Worked cases, answers included:
CCCNC(=O)C1(C)CCN(Cc2ccc(Cl)c(Cl)c2)C1 (stereo unspecified) : inactive
COc1ccc2[nH]c3c(c2c1)CCN[C@H]3C : inactive
O=C(C1CC(=O)N(c2ccc(F)cc2)C1)N1CCN(c2ccccc2)CC1 (stereo unspecified) : inactive
C=CCC[C@H](Cc1ccc(F)cc1)C(=O)OC[C@@H](NC(=O)[C@@H](CC=C)CC(=O)N[C@H](CO)Cc1ccccc1)C(C)(C)C : 12.6 µM (active)
CC(C)(C)c1cc(C(=O)N/N=C/c2ccc([N+](=O)[O-])s2)n[nH]1 : 11.2 µM (active)

State its Potency: `O=C(Nc1ccc(NC(=O)c2ccccc2F)cc1)c1ccccc1F`
inactive

Answer with reported Potency of `C=CCC[C@H](Cc1ccc(F)cc1)C(=O)OC[C@@H](Cc1c[nH]c2ccccc12)NC(=O)[C@H](CC=C)CC(=O)N[C@H](CO)Cc1ccccc1`
inactive

Provide measured Potency value, entry: `C/C(=N\NC(=O)Cc1ccc(Cl)cc1)c1ccccn1`
5.01 µM (active)
